These data points were gathered from patent US8178506B2.

Tested on: HuVECs
Assay: Endothelial tube formation assay in HuVECs
Conditions: 75 nM oligomeric compound, Table 58
In the oligonucleotide strings, read from the 5' end, every base follows the letter of its sugar. An asterisk marks phosphorothioate; unmarked linkages are phosphodiester. Other units and linkages are bracketed, terminal groups are in braces. A string of capitals states the bases alone. e = 2'-O-(2-methoxyethyl) (MOE); [5mC] = 5-methylcytosine
Property Label: % Activity Relative to UTC (tube formation) (%)
# unit: % | format: bare number

Consider the worked cases shown below.
>>> obs_value("327936 (antisense eA*e[5mC]*eA*eG*e[5mC]*eT*eG*eG*eT*eT*eG*eA*eA*eG*eG*eG*eG*eA*e[5mC]*e[5mC]*eA*eA) [compound 327936]")
51.9
>>> obs_value("327947 (antisense eT*e[5mC]*eA*eG*eT*eT*eA*eT*e[5mC]*eA*e[5mC]*eA*eG*eT*eA*e[5mC]*eT*eG*eT*eA) [compound 327947]")
81.5

Continue with the next substance.
GET /values?item= 327940 (antisense eG*eA*eA*e[5mC]*eA*eG*eG*eT*eA*eG*eT*e[5mC]*eT*eG*eA*eA*e[5mC]*eA*e[5mC]*eT*eG*eG*eG) [compound 327940] &system= HuVECs returns % Activity Relative to UTC (tube formation): 59.3
